- Test system: human mAChR M4 (Homo sapiens, UniProt P08173)
- Assay explanation: mAChR M4 cell-based functional assay (calcium flux), human M4
- Particulars: Human M4 EC50, CHO-K1 hM4-Gqi5 cells; calcium flux; increase in EC20 acetylcholine response
Property: EC50

Check out these entries, answers already filled in.
INSERT INTO measurements (compound, val) VALUES
  ('COc1ccc(C2CC2Nc2ncnc3c2sc2nnc(C)c(C)c23)cc1 (stereo not drawn) [Compound 26]', '≥ 10 µM'),
  ('Cc1nnc2sc3c(NC4CCN(c5ccccc5)C4)ncnc3c2c1C (stereo not drawn) [Compound 23]', '≥ 10 µM');

Consider the record given below.
**Q:** Please look at this compound and report its EC50: Cc1nnc2oc3c(NC4CC5(COC5)C4)ncnc3c2c1C [Compound 71]
**A:** > 10 µM

====

The entries below are paired with their reported Emax.
- Test system: human mAChR M4 (Homo sapiens, UniProt P08173)
- Assay explanation: mAChR M4 cell-based functional assay (calcium flux), human M4
- Particulars: Table 10; % ACh maximum at 30 μM
Lab book: enter the figure in %, no units written.

Consider the following illustrative entries.
INSERT INTO results (compound, val) VALUES
  ('COc1ccc(C2CC2Nc2ncnc3c2sc2nc(C)cc(C)c23)cc1 (centres unmarked)', 61.1),
  ('Cc1nnc2sc3c(NCc4ccc(OCC5CC5)c(F)c4)ncnc3c2c1C', 61.8),
  ('Cc1nnc2sc3c(NCc4ccc(F)c(C(=O)N[C@H](C)C(F)(F)F)c4)ncnc3c2c1C', 97.2);

**Q:** Look up and state reported Emax for Cc1c(Cl)cnc2sc3c(N4CC(c5ccncc5)C4)ncnc3c12
**A:** 57.6

**Q:** Output Emax of Cc1nnc2sc3c(NC4CN(c5ncc(C6CC6)cc5Cl)C4)ncnc3c2c1C
**A:** 50.1

**Q:** Query Emax for COc1ccc(CNc2ncnc3c2sc2nnc(Cl)c(C)c23)cc1F
**A:** 80

**Q:** // Input: Cc1cc(C)c2c(n1)sc1c(NCc3cnc(C)nc3)ncnc12 . Output its Emax only.
**A:** 54.2

**Q:** Give the measured Emax for Cc1nnc2sc3c(NCc4ccc(-c5ccc[nH]5)cc4)ncnc3c2c1C
**A:** 56.9

**Q:** Identify Emax associated with the compound Cc1nnc2sc3c(NCc4ccc(C(=O)NC5CC(F)(F)C5)cc4)ncnc3c2c1C
**A:** 86.9

**Q:** Give the measured Emax for Cc1nnc2sc3c(NCc4ccc(-c5ccnn5C)cc4)ncnc3c2c1C
**A:** 82

====

- Test system: UniProt P08173
- Sequence (P08173 1-479): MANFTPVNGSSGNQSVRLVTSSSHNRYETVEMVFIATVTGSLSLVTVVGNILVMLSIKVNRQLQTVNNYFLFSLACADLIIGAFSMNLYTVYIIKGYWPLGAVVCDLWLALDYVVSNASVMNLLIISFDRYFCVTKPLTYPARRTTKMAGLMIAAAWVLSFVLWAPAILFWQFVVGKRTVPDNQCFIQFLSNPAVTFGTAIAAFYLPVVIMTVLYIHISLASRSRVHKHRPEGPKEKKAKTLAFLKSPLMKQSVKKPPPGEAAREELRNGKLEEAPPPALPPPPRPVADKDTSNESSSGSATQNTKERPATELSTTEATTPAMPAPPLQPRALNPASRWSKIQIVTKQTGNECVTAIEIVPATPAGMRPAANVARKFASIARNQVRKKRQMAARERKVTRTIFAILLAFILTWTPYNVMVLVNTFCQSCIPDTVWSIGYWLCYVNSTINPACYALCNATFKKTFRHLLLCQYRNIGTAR
- Assay explanation: mAChR M4 cell-based functional assay (calcium flux), human M4
- Particulars: Table 11; % ACh maximum at 30 μM
API: label(entry) gives Condition met if the entry's Emax is strictly smaller than 80%; on equality or larger values it gives Condition not met.

Examples with answers:
INSERT INTO results (compound, classification) VALUES
  ('COCCNC(=O)c1ccc(CNc2ncnc3c2sc2nnc(C)c(C)c23)cc1Cl [Compound 324]', 'Condition not met'),
  ('Cc1c(CO)nnc2sc3c(NCc4ccc(C(C)(C)O)cc4)ncnc3c12 [Compound 377]', 'Condition not met');

**Q:** Please check: Emax for Cc1nnc2sc3c(NCc4ccc(C(=O)NC5CCC5)c(Cl)c4)ncnc3c2c1C [Compound 316] , strictly under 80% or not?
**A:** Condition not met

====

- Test system: UniProt P08173
- Assay explanation: mAChR M4 cell-based functional assay (calcium flux), human M4
- Particulars: Human M4 EC50 (nM), Table 11; calcium flux, PAM activity with EC20 acetylcholine
Structures can show the parent of a compound that is named as a salt.
Hi! Could you tag entries with EC50 below 200 nM as true, and those at or above as false? Much appreciated.

These recorded examples may help you get a feel for the data.
INSERT INTO results (compound, classification) VALUES
  ('Cc1nnc2sc3c(N4CC[C@@H](Oc5cccnc5)C4)ncnc3c2c1C', 'true'),
  ('Cc1nnc2sc3c(NCc4ccc(C(C)(C)CO)cc4F)ncnc3c2c1C', 'false'),
  ('Cc1nnc2sc3c(NCc4ccc(C(=O)NC(C)C5(CO)CC5)c(Cl)c4)ncnc3c2c1C (stereo not drawn)', 'false'),
  ('Cc1nnc2sc3c(N4CCC(Oc5ccnc(Cl)c5)CC4)ncnc3c2c1C', 'false'),
  ('Cc1nnc2sc3c(NCc4cccc(-n5cccn5)c4)ncnc3c2c1C', 'false');

**Q:** A record lists Cc1nnc2sc3c(NCc4ccc(C(=O)NC5CC5(C)C)c(Cl)c4)ncnc3c2c1C (stereo not drawn) . Is its EC50 below 200 nM?
**A:** false

**Q:** I'd appreciate it if you could check whether Cc1nnc2sc3c(NCc4ccc(C(=O)NC5CCC5)c(Cl)c4)ncnc3c2c1C has EC50 smaller than 200 nM.
**A:** false

**Q:** hey, is EC50 for Cc1nnc2sc3c(N4CC(Oc5cccnc5)C4)ncnc3c2c1C [Compound 356, dihydrochloride] lower than 200 nM or not?
**A:** false

**Q:** State whether 200 nM exceeds EC50 recorded for Cc1cc(O[C@H]2CCN(c3ncnc4c3sc3nnc(C)c(C)c34)C2)ccn1 .
**A:** true

**Q:** Input Cc1cc(O[C@H]2C[C@@H](C)N(c3ncnc4c3sc3nnc(C)c(C)c34)C2)ccn1 [Compound 365, dihydrochloride] ; condition: EC50 strictly below 200 nM. Does it hold?
**A:** false

**Q:** Regarding Cc1nnc2sc3c(NCc4ccc(C(=O)NC5CC5)c(Cl)c4)ncnc3c2c1C , kindly confirm whether its EC50 is beneath 200 nM.
**A:** true

**Q:** Consider Cc1nnc2sc3c(N4CC(Oc5ccnc(Cl)c5)C4)ncnc3c2c1C [Compound 349, dihydrochloride] . Does its EC50 lie strictly below 200 nM?
**A:** false

**Q:** Identify whether the compound Cc1nnc2sc3c(N4CC(Oc5ccc(C#N)nc5)C4)ncnc3c2c1C [Compound 355, dihydrochloride] records EC50 below 200 nM.
**A:** false

**Q:** Does this compound meet the criterion EC50 < 200 nM? COCCNC(=O)c1ccc(CNc2ncnc3c2sc2nnc(C)c(C)c23)cc1Cl
**A:** true

**Q:** Hello, I'm reviewing records and need to know if EC50 of Cc1ccc(O[C@H]2CCN(c3ncnc4c3sc3nnc(C)c(C)c34)C2)cn1 [Compound 364, dihydrochloride] is below 200 nM. Could you check?
**A:** false

**Q:** Hello, I'm reviewing records and need to know if EC50 of CNC(=O)c1ccc(CNc2ncnc3c2sc2nnc(C)c(C)c23)cc1Cl is below 200 nM. Could you check?
**A:** true

**Q:** Find out if reported EC50 for Cc1cc(C)c(OC2CN(c3ncnc4c3sc3nnc(C)c(C)c34)C2)cn1 [Compound 351, dihydrochloride] is less than 200 nM
**A:** false

**Q:** EC50 under 200 nM? Item: Cc1nnc2sc3c(N4CC(COc5ccnc(Cl)c5)C4)ncnc3c2c1C [Compound 348, dihydrochloride]
**A:** false

**Q:** Is 200 nM strictly greater than the compound's reported EC50? compound: Cc1nnc2sc3c(NCc4ccc(C(=O)NC5CC(F)C5)c(Cl)c4)ncnc3c2c1C (stereo not drawn)
**A:** true

**Q:** For Cc1nnc2sc3c(N4CC[C@@H](Oc5ccnc(Cl)c5)C4)ncnc3c2c1C , is the recorded EC50 below the cut-off of 200 nM?
**A:** true

====

- Test system: human mAChR M4 (Homo sapiens, UniProt P08173)
- Sequence (P08173 1-479): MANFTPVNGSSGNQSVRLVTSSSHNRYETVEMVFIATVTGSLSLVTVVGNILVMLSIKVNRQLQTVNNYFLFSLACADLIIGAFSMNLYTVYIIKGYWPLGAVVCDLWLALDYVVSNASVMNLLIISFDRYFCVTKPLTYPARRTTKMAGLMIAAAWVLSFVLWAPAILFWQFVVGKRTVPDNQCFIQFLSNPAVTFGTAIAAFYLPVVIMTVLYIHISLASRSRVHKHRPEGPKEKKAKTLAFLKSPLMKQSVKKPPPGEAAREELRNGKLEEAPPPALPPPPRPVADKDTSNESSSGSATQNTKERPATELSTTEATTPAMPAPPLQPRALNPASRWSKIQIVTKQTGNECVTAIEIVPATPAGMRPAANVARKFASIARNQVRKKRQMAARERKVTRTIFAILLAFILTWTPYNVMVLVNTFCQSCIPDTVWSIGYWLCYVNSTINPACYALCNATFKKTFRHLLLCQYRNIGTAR
- Assay explanation: mAChR M4 cell-based functional assay (calcium flux), human M4
- Particulars: Table 11; % ACh maximum at 30 μM
Structures can show the parent of a compound that is named as a salt.
# satisfied = Emax below 70% (exclusive); not satisfied = Emax at/above 70%

Known results for molecules:
INSERT INTO results (molecule, classification) VALUES
  ('Cc1nnc2sc3c(N4CCC(Oc5ccncc5)(C(F)(F)F)C4)ncnc3c2c1C (stereo not shown) [Compound 366, dihydrochloride]', 'not satisfied'),
  ('Cc1nnc2sc3c(NCc4ccc(C(C)(C)CO)cc4F)ncnc3c2c1C [Compound 368]', 'not satisfied'),
  ('Cc1nnc2sc3c(N4CC[C@H](Oc5ccc(C(F)(F)F)nc5)C4)ncnc3c2c1C [Compound 362, dihydrochloride]', 'not satisfied'),
  ('Cc1nnc2sc3c(NCc4ccc(C(=O)NC5CC(F)(F)C5)c(Cl)c4)ncnc3c2c1C [Compound 322]', 'not satisfied'),
  ('Cc1nnc2sc3c(N4CC[C@H](C(C)(C)O)C4)ncnc3c2c1C [Compound 354]', 'satisfied');

**Q:** Quick check: does Cc1cc(O[C@H]2C[C@@H](C)N(c3ncnc4c3sc3nnc(C)c(C)c34)C2)ccn1 [Compound 365, dihydrochloride] have Emax under 70%?
**A:** satisfied
